B1: Twister Ribozyme (parent)
chain: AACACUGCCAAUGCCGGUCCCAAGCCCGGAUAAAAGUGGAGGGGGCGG

variants of: B1; test: self-cleavage, relative activity (ratio to wild type); higher = more cleavage; co-transcriptional
We use 0.2 as the dividing line for self-cleavage: on or above the line is 1, below is 0.

Ask: Dear colleague, could you confirm whether G24U G44A has self-cleavage at or above 0.2?
Reply: 0

Ask: Try C15A C19G next.
Reply: 0

Ask: Try A34U G48A next.
Reply: 1

Ask: Try A2G U18G next.
Reply: 0

Ask: Try U12G U37G next.
Reply: 1

Ask: Try A1C G48U next.
Reply: 1

Ask: Try G29A A33G next.
Reply: 1

Ask: Try G24C G29A next.
Reply: 0

Ask: Try U18G G43C next.
Reply: 0

Ask: Try C26G G45C next.
Reply: 0

Ask: Try C15A A40G next.
Reply: 0

Ask: Try A22C A30C next.
Reply: 1

Ask: Try A4C C19A next.
Reply: 0

Ask: Try A10G A32C next.
Reply: 1

Ask: Try C8G U12G next.
Reply: 1

Ask: Try A11G G43A next.
Reply: 1

Ask: Try C8A A32U next.
Reply: 1

Ask: Try C5G C25A next.
Reply: 0

Ask: Try C5A G42A next.
Reply: 0

Ask: Try C27G G39U next.
Reply: 0

Data origin: the RNAGym collection of RNA variant scans (doi:10.7554/elife.80360)
